# Test system: Septoria tritici
# ASSAY EXPLANATION: Septoria tritici (Leaf Blotch) growth inhibition, microtiter plate, photometric
# Type: cell-based
# CONDITION CONTEXT: 0.25 ppm AI, alone
Task for the reader: assign each of the following molecules its reported AVERAGE DEAD IN %.
Please give a number only; it is taken to be in %.

Query :: Name the recorded AVERAGE DEAD IN % for COC(c1ccc(Cl)cc1Cl)C(C)NC(=O)c1cn(C)nc1C(F)F (centres unmarked) .
Result :: 90

Query :: Note, next up: CC(C)C1C2CCC1c1c(NC(=O)c3cn(C)nc3C(F)F)cccc12 (centres unmarked) [Isopyrazam, reference compound]
Result :: 70

Query :: Then CC1COC(Cn2cncn2)(c2ccc(Oc3ccc(Cl)cc3)cc2Cl)O1 (centres unmarked) ?
Result :: 90

Query :: What about N#Cc1c(Cl)c(Cl)c(Cl)c(C#N)c1Cl [Chlorothalonil, reference compound] ?
Result :: 0

Query :: Okay, and CC(C1CC1)C(O)(Cn1cncn1)c1ccc(Cl)cc1 (centres unmarked) ?
Result :: 20
